# Assay remarks: Caco-2 membrane permeability and efflux rate
# Type: in vitro ADME
# Settings: human, Caco-2, Caco-2, 5 μM, basal end to top end
Measurement label: Papp B→A at 2 h, 5 μM (×10⁻⁶ cm/s)

A = CP(C)(=O)c1cccc2c(-c3nc(NCCCO)ncc3C(F)(F)F)c[nH]c12
B = CC(C)(CO)Nc1ncc(C(F)(F)F)c(-c2c[nH]c3c(P(C)(C)=O)cccc23)n1
Out of A and B , name the one with the higher Papp B→A at 2 h, 5 μM. Refer to your chosen item by its label in the answer.
A

P = CC(CO)CNc1ncc(C(F)(F)F)c(-c2c[nH]c3c(P(C)(C)=O)cccc23)n1 (single isomer, unassigned)
Q = CP(C)(=O)c1cccc2c(-c3nc(NC4(CO)CCC4)ncc3C(F)(F)F)c[nH]c12
Form: Entry with minimum Papp B→A at 2 h, 5 μM (choose one): P / Q Please respond with the label that marks your chosen entry.
Q
(Q: 17.1 ×10⁻⁶ cm/s, P: 32.8 ×10⁻⁶ cm/s)

a = CP(C)(=O)c1cccc2c(-c3nc(N[C@H]4CCC[C@@H]4O)ncc3C(F)(F)F)c[nH]c12
b = CP(C)(=O)c1cccc2c(-c3nc(NC45CC(O)(C4)C5)ncc3C(F)(F)F)c[nH]c12
Out of a and b , name the one with the higher Papp B→A at 2 h, 5 μM. Write down the label attached to your selection.
b
